The reported measurements were obtained from paper PMC9959130.

assay: Biodistribution in BALB/c nude mice bearing A431-CCK2R/A431-mock xenografts; format: in vivo; conditions: female, athymic BALB/c nude, mouse, A431-CCK2R xenograft / kidney, iv, 20 pmol, total radioactivity, A431-CCK2R xenograft, BALB/c nude mice, ~20 pmol, 4 h p.i. (indium-111 or lutetium-177), mean ± SD n = 4; read-out: tumor-to-organ ratio: kidney
Form field: tissue to tissue ratio at 4 h (one value per entry).
Reply: number alone, nothing else.

CCCC[C@@H](C(=O)N[C@@H](CC(=O)O)C(=O)N[C@@H](Cc1ccc2ccccc2c1)C(N)=O)N(C)C(=O)[C@H](Cc1c[nH]c2ccccc12)NC(=O)CNC(=O)[C@H](Cc1ccc(O)cc1)NC(=O)[C@H](C)NC(=O)[C@@H](CCC(=O)O)NC(=O)CN1CCN(CC(=O)O)CCN(CC(=O)O)CCN(CC(=O)O)CC1 [[^111In]In-DOTA-[2Nal^8]MGS5, metal not drawn] :: 6.04

Next item in the queue.
Challenge: I have this compound here, CCCC[C@@H](C(=O)N[C@@H](CC(=O)O)C(=O)N(C)[C@@H](Cc1cccc2ccccc12)C(N)=O)N(C)C(=O)[C@H](Cc1c[nH]c2ccccc12)NC(=O)CNC(=O)[C@H](Cc1ccc(O)cc1)NC(=O)[C@H](C)NC(=O)[C@@H](CCC(=O)O)NC(=O)CN1CCN(CC(=O)O)CCN(CC(=O)O)CCN(CC(=O)O)CC1 [[^111In]In-DOTA-[(N-Me)1Nal^8]MGS5, metal not drawn] , and I need its recorded tissue to tissue ratio at 4 h.
Response given: 7.55

====

Experiment: Biodistribution in BALB/c nude mice bearing A431-CCK2R/A431-mock xenografts
Format: in vivo
Settings: female, athymic BALB/c nude, mouse, stomach, iv, 20 pmol, total radioactivity, xenografted BALB/c nude mice, i.v., ~20 pmol, 4 h p.i. (indium-111 or lutetium-177), mean ± SD n = 4; read-out: Uptake in stomach
Protocol: The overall biodistribution and tumor targeting properties of selected radiolabeled peptides were evaluated in female athymic BALB/c nude mice (Charles River, Sulzfeld, Germany, age of 7 to 9 weeks). […] The tumors and other tissues (blood, lung, heart, muscle, spleen, intestine, liver, kidney, stomach, and pancreas) were dissected, weighed, and the radioactivity measured in the γ-counter. […]
Where a SMILES comes first, the peptide text is derived from it. [ ]: non-standard residue; d: D form. The star is where a group is joined. DOTA = O=C(O)CN1CCN(CC(=O)O)CCN(CC(=O)*)CCN(CC(=O)O)CC1; 1Nal = N[C@@H](Cc1cccc2ccccc12)C(=O)O; NMeNle = CCCC[C@H](NC)C(=O)O
Recorded measurements of tissue uptake at 4 h, one per entry
# value in %ID/g; strip the unit string

These solved cases illustrate the format of a correct answer.
CCCC[C@@H](C(=O)N[C@@H](CC(=O)O)C(=O)N[C@@H](Cc1ccc2ccccc2c1)C(N)=O)N(C)C(=O)[C@H](Cc1c[nH]c2ccccc12)NC(=O)CNC(=O)[C@H](Cc1ccc(O)cc1)NC(=O)[C@H](C)NC(=O)[C@@H](CCC(=O)O)NC(=O)CN1CCN(CC(=O)O)CCN(CC(=O)O)CCN(CC(=O)O)CC1 [[^111In]In-DOTA-[2Nal^8]MGS5, metal not drawn] :: 7.03
CCCC[C@@H](C(=O)N[C@@H](CC(=O)O)C(=O)N(C)[C@@H](Cc1cccc2ccccc12)C(N)=O)N(C)C(=O)[C@H](Cc1c[nH]c2ccccc12)NC(=O)CNC(=O)[C@H](Cc1ccc(O)cc1)NC(=O)[C@H](C)NC(=O)[C@@H](CCC(=O)O)NC(=O)CN1CCN(CC(=O)O)CCN(CC(=O)O)CCN(CC(=O)O)CC1 [[^177Lu]Lu-DOTA-[(N-Me)1Nal^8]MGS5, metal not drawn] :: 2.37
CCCC[C@@H](C(=O)N[C@@H](CC(=O)O)C(=O)N[C@@H](Cc1cccc2ccccc12)C(N)=O)N(C)C(=O)[C@H](Cc1c[nH]c2ccccc12)NC(=O)CNC(=O)[C@H](Cc1ccc(O)cc1)NC(=O)[C@H](C)NC(=O)[C@@H](CCCCN)NC(=O)CN1CCN(CC(=O)O)CCN(CC(=O)O)CCN(CC(=O)O)CC1 [[^111In]In-DOTA-[DLys^1]MGS5, metal not drawn] ({DOTA}-[dK]AYGW[NMeNle]D[1Nal]-NH2) :: 7.73

Challenge: Entry under review: CCCC[C@@H](C(=O)N[C@@H](CC(=O)O)C(=O)N[C@@H](Cc1cccc2ccccc12)C(=O)NC)N(C)C(=O)[C@H](Cc1c[nH]c2ccccc12)NC(=O)CNC(=O)[C@H](Cc1ccc(O)cc1)NC(=O)[C@H](C)NC(=O)[C@@H](CCC(=O)O)NC(=O)CN1CCN(CC(=O)O)CCN(CC(=O)O)CCN(CC(=O)O)CC1 [[^111In]In-DOTA-MGS5[NHCH3], metal not drawn] . Reported tissue uptake at 4 h?
Response given: 0.96

====

experiment: Biodistribution in BALB/c nude mice bearing A431-CCK2R/A431-mock xenografts; assay type: in vivo; conditions: female, athymic BALB/c nude, mouse, A431-CCK2R xenograft / kidney, iv, 20 pmol, total radioactivity, A431-CCK2R xenograft, BALB/c nude mice, 20 pmol, gallium-68, 1 h p.i., mean ± SD n = 4; read-out: tumor-to-organ ratio: kidney
VALUE_TYPE: tissue to tissue ratio at 1 h
Answer using only a numeral; do not append any unit.

Challenge: Give the measured tissue to tissue ratio at 1 h of CCCC[C@@H](C(=O)N[C@@H](CC(=O)O)C(=O)N(C)[C@@H](Cc1cccc2ccccc12)C(N)=O)N(C)C(=O)[C@H](Cc1c[nH]c2ccccc12)NC(=O)CNC(=O)[C@H](Cc1ccc(O)cc1)NC(=O)[C@H](C)NC(=O)[C@@H](CCC(=O)O)NC(=O)CN1CCN(CC(=O)O)CCN(CC(=O)O)CCN(CC(=O)O)CC1 [[^68Ga]Ga-DOTA-[(N-Me)1Nal^8]MGS5, metal not drawn] .
Response given: 2.36

====

test: In vitro stability in human serum (intact radiopeptide by radio-HPLC); type: in vitro ADME; conditions: radiolabeled peptide (111In where no radiometal named), fresh human serum, 37 °C, 1000 pmol/mL, 24 h after incubation, n = 2
Where a SMILES comes first, the peptide text is derived from it. [ ]: non-standard residue; d: D form. The star is where a group is joined. DOTA = O=C(O)CN1CCN(CC(=O)O)CCN(CC(=O)*)CCN(CC(=O)O)CC1; 1Nal = N[C@@H](Cc1cccc2ccccc12)C(=O)O; NMeNle = CCCC[C@H](NC)C(=O)O
Intact Radiopeptide in Human Serum (%) values, listed per item
Give the number; % is assumed, so skip it.

CCCC[C@@H](C(=O)N[C@@H](CC(=O)O)C(=O)N[C@@H](Cc1cccc2ccccc12)C(N)=O)N(C)C(=O)[C@H](Cc1c[nH]c2ccccc12)NC(=O)CNC(=O)[C@H](Cc1ccc(O)cc1)NC(=O)[C@H](C)NC(=O)[C@@H](CCCCN)NC(=O)CN1CCN(CC(=O)O)CCN(CC(=O)O)CCN(CC(=O)O)CC1 [DOTA-[DLys^1]MGS5] ({DOTA}-[dK]AYGW[NMeNle]D[1Nal]-NH2) :: 98.1

From here, focus on the item given below.
Challenge: # query: Intact Radiopeptide in Human Serum (%) of entry CCCC[C@@H](C(=O)N[C@@H](CC(=O)O)C(=O)N[C@@H](Cc1ccccc1)C(N)=O)N(C)C(=O)[C@H](Cc1c[nH]c2ccccc12)NC(=O)CNC(=O)[C@H](Cc1ccc(O)cc1)NC(=O)[C@H](C)NC(=O)[C@@H](CCC(=O)O)NC(=O)CN1CCN(CC(=O)O)CCN(CC(=O)O)CCN(CC(=O)O)CC1 [DOTA-[Phe^8]MGS5] ({DOTA}-[dE]AYGW[NMeNle]DF-NH2)
Response given: 54.0

====

Reported values of remaining at 24 h, 1000 pmol/mL for individual entries
assay: In vitro stability in human serum (intact radiopeptide by radio-HPLC); format: in vitro ADME; conditions: radiolabeled peptide (111In where no radiometal named), fresh human serum, 37 °C, 24 h after incubation, n = 2
Where a SMILES comes first, the peptide text is derived from it. [ ]: non-standard residue; d: D form. The star is where a group is joined. DOTA = O=C(O)CN1CCN(CC(=O)O)CCN(CC(=O)*)CCN(CC(=O)O)CC1; NMeNle = CCCC[C@H](NC)C(=O)O
Give a bare numeral; the unit % is implied.

CCCC[C@@H](C(=O)N[C@@H](CC(=O)O)C(=O)N[C@@H](Cc1ccccc1)C(N)=O)N(C)C(=O)[C@H](Cc1c[nH]c2ccccc12)NC(=O)CNC(=O)[C@H](Cc1ccc(O)cc1)NC(=O)[C@H](C)NC(=O)[C@@H](CCC(=O)O)NC(=O)CN1CCN(CC(=O)O)CCN(CC(=O)O)CCN(CC(=O)O)CC1 [[^111In]In-DOTA-[Phe^8]MGS5, metal not drawn] ({DOTA}-[dE]AYGW[NMeNle]DF-NH2) :: 54

Next up:
Challenge: Query (compound): CCCC[C@@H](C(=O)N[C@@H](CC(=O)O)C(=O)N(C)[C@@H](Cc1cccc2ccccc12)C(N)=O)N(C)C(=O)[C@H](Cc1c[nH]c2ccccc12)NC(=O)CNC(=O)[C@H](Cc1ccc(O)cc1)NC(=O)[C@H](C)NC(=O)[C@@H](CCC(=O)O)NC(=O)CN1CCN(CC(=O)O)CCN(CC(=O)O)CCN(CC(=O)O)CC1 [[^111In]In-DOTA-[(N-Me)1Nal^8]MGS5, metal not drawn] ; field requested: remaining at 24 h, 1000 pmol/mL
Response given: 99.6
